target: MDM2 (res 2-125) (Homo sapiens); assay: Fluorescence anisotropy titration, binding to MDM2; settings: measured λex=295 nm; read-out: Kd, peptide + MDM2
Sequence (Q00987 2-125): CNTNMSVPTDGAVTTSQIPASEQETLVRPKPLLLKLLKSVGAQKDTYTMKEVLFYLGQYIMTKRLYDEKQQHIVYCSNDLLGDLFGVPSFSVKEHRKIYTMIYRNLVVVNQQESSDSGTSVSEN

- substance: "H-SCVRFGWTCDNSWHGCKG-OH (cysteine pairing not given here) [PEP48, bicyclic peptide selected against MDM2]"
  Kd, nM: 567
